Target: T1, human DR3 (full length, on cells) (human, UniProt Q93038 25-417)
T1 sequence: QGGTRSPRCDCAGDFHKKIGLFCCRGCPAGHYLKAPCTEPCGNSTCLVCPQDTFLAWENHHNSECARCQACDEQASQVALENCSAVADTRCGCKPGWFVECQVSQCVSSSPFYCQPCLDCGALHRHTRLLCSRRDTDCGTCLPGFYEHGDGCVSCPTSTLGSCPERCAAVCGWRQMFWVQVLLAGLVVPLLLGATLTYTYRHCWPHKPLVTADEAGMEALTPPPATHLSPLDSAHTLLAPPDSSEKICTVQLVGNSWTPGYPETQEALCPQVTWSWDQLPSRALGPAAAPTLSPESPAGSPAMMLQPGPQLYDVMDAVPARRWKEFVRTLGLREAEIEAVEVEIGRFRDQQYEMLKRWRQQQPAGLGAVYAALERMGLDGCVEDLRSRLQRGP
Assay: cell-based or functional assay
MEASURE NAME: IFN-γ, TL1A-costimulated lymphocytes, Fab 1.0 µg/mL (ng/mL)
Report the value in ng/mL with no unit label.

# IFN-γ, TL1A-costimulated lymphocytes, Fab 1.0 µg/mL (binder: 0171 (humanized IgG1 Fab of 0072 without back mutations) (Fab, V domains shown) VH: EVQLVESGGGLVQPGGSLRLSCAASGFTFSNYDMSWVRQATGKGLEWVSAFSSDGYTFYPGSVKGRFTISRENAKNSLYLQMNSLRAGDTAVYYCARHADYANYPVMDYWGQGTLVTVSS VL: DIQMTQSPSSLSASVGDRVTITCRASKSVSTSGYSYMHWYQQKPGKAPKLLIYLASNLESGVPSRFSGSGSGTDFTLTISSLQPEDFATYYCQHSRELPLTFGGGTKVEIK ) is 40

# IFN-γ, TL1A-costimulated lymphocytes, Fab 1.0 µg/mL (binder: 0118 (chimeric Fab of 27F16, human IgG1 constant domain) (Fab, V domains shown) VH: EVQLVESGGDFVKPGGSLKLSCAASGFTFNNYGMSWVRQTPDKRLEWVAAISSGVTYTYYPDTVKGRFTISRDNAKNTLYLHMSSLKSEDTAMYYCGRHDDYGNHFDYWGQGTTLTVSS VL: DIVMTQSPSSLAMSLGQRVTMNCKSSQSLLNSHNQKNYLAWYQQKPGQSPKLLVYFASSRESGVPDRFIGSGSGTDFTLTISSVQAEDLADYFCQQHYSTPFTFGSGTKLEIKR ) is 132

# IFN-γ, TL1A-costimulated lymphocytes, Fab 1.0 µg/mL (binder: 0170 (humanized IgG1 Fab of 0072; HC T28A S49A Y91; LC Q3A T5A S60A M4) (Fab, V domains shown) VH: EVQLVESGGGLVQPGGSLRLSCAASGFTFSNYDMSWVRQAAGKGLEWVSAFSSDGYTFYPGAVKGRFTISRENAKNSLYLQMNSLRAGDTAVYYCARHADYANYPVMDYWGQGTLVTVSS VL: DIAMAQSPSSLSASVGDRVTITCRASKSVSTSGYSYMHWYQQKPGKAPKLLIYLASNLEAGVPSRFSGSGSGTDFTLTISSLQPEDFATYYCQHSRELPLTFGGGTKVEIK ) is 63

# IFN-γ, TL1A-costimulated lymphocytes, Fab 1.0 µg/mL (binder: 0169 (humanized IgG1 Fab of 0072; HC T28A S49A Y91; LC Q3A T5A S60A M4L) (Fab, V domains shown) VH: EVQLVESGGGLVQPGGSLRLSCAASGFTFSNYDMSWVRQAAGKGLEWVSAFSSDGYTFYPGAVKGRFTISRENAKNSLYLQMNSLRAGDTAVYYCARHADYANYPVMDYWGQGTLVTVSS VL: DIALAQSPSSLSASVGDRVTITCRASKSVSTSGYSYMHWYQQKPGKAPKLLIYLASNLEAGVPSRFSGSGSGTDFTLTISSLQPEDFATYYCQHSRELPLTFGGGTKVEIK ) is 55

# IFN-γ, TL1A-costimulated lymphocytes, Fab 1.0 µg/mL (binder: 0173 (humanized IgG1 Fab of 0072; HC T28A S49A Y91S; LC Q3A T5A S60A M4L) (Fab, V domains shown) VH: EVQLVESGGGLVQPGGSLRLSCAASGFTFSNYDMSWVRQAAGKGLEWVSAFSSDGYTFYPGAVKGRFTISRENAKNSLYLQMNSLRAGDTAVYYCARHADYANSPVMDYWGQGTLVTVSS VL: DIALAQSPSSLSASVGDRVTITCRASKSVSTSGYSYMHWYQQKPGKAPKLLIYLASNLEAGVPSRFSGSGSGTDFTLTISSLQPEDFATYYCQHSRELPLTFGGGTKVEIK ) is 48
